# Experimental system: human NAAA (Homo sapiens, UniProt Q02083)
# Construct: soluble fraction after freeze/thaw
# Sequence (Q02083 29-359): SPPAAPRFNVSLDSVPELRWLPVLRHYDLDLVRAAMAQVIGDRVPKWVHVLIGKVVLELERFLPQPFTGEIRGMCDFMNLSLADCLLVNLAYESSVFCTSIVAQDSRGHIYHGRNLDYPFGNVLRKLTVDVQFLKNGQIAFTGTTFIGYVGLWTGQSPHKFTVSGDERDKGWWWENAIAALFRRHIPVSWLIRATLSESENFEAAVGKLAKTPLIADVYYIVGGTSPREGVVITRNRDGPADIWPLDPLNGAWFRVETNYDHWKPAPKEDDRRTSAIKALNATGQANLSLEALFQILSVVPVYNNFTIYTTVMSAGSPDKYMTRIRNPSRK
# Assay text: Fluorogenic h-NAAA assay
# Condition notes: recombinant HEK-hNAAA preparation
# Procedure: Hek293 cells stably transfected with the human NAAA coding sequence cloned from a human spleen cDNA library were used as enzyme source. Recombinant HEK-hNAAA pellets were resuspended in homogenizing buffer, and sonicated. Samples were centrifuged at 800×g for 15 min at 4° C. and the supernatants were ultracentrifuged at 12,000×g for 30 min at 4° C. […] Protein concentration was measured and samples stored at −80° C. until use. […]
Entries are sorted into classes by IC50 as follows: low group (below 0.2 µM), middle group (0.2 µM to below 4 µM), high group (4 µM or more)

Textbook exercise: identify the category of the compound given here, CCCCC/C=C\CC(=O)N[C@H]1CNC1=O , according to its measured value.
middle group

Textbook exercise: identify the category of the compound given here, CCCCCCCCCCC(=O)N[C@H]1CNC1=O [Example 24, N-[(3S)-2-Oxoazetidin-3-yl]-undecanamide] , according to its measured value.
low group

Textbook exercise: identify the category of the compound given here, O=C(CCCCCCc1ccccc1)N[C@H]1CNC1=O , according to its measured value.
middle group

Textbook exercise: identify the category of the compound given here, CCCCCCCC(C)C(=O)N[C@H]1CNC1=O (mixture of isomers) , according to its measured value.
middle group

Textbook exercise: identify the category of the compound given here, CCCCCCCCC(=O)N[C@@H]1CNC1=O [Example 4, N-[(3R)-2-Oxoazetidin-3-yl]-nonanamide] , according to its measured value.
high group

Textbook exercise: identify the category of the compound given here, O=C(CCCCCC1CCCCC1)N[C@H]1CNC1=O , according to its measured value.
middle group

Textbook exercise: identify the category of the compound given here, CCCCCCC(=O)N[C@H]1CNC1=O [Example 21, N-[(3S)-2-Oxoazetidin-3-yl]-heptanamide] , according to its measured value.
high group

Textbook exercise: identify the category of the compound given here, CCCCCCCCC(=O)N[C@H]1CNC1=O [Example 3, N-[(3S)-2-Oxoazetidin-3-yl]-nonanamide] , according to its measured value.
low group

Reference source for all entries: patent US9908848B2
